- Tested on: Mycoplasma gallisepticum
- test_protocol: Activity against Mycoplasma gallisepticum (minimum inhibiting concentration)
- Type: cell-based
- recorded_conditions: Table IVb; with Cu (50 μg/ml Cu^2+)
Listed here are molecules together with their documented MIC M. gall. with Cu.

{"molecule": "Clc1ccc2nc(-c3ccccn3)ncc2c1 [C]", "MIC M. gall. with Cu, mg/L": 0.8}
{"molecule": "c1ccc(-c2ncc3ccccc3n2)nc1 [B]", "MIC M. gall. with Cu, mg/L": 0.5}
{"molecule": "Nc1ccc2ccc3cccnc3c2n1 [F]", "MIC M. gall. with Cu, mg/L": 0.8}
{"molecule": "COc1ccc2ccc3cccnc3c2n1 [G]", "MIC M. gall. with Cu, mg/L": 3}
{"molecule": "Nc1ccc2ccc3ccc(N)nc3c2n1 [E]", "MIC M. gall. with Cu, mg/L": 0.8}

The origin of these recorded values is patent US4269834A.
